Data origin, for the record: ChEMBL document CHEMBL2331454

# targetEntity: Soluble epoxide hydrolase (Homo sapiens)
# testName: Inhibition of human recombinant soluble epoxide hydrolase expressed in Escherichia coli after 30 mins by PHOME-based fluorescence assay
Overview of recorded IC50 for various compounds
Kindly answer with a numeric value in nM, unit omitted.

Exercise: Recorded IC50 for COc1cc(-c2nc3ccc(Cl)cn3c2NC2CCCCC2)ccc1OCCCNC(=O)Nc1ccc(C(F)(F)F)cc1 , please?
Key: 336

Exercise: Recorded IC50 for COc1cc(-c2nc3ccc(C)cn3c2NC2CCCCC2)ccc1OCCCNC(=O)NC1CCCCC1 , please?
Key: 190

###

# targetEntity: Soluble epoxide hydrolase (Homo sapiens)
# testName: Inhibition of human recombinant soluble epoxide hydrolase expressed in Escherichia coli after 30 mins by PHOME-based fluorescence assay
Overview of recorded pIC50 for various compounds
Note on pIC50: it is the negative log10 of concentration, concentration in mol/L.

COc1cc(-c2nc3ccc(F)cn3c2NC2CCCCC2)ccc1OCCCNC(=O)Nc1ccc(C(F)(F)F)cc1    6.19
COc1cc(-c2nc3ccc(C)cn3c2NC2CCCC2)ccc1OCCCNC(=O)Nc1ccc(C(F)(F)F)cc1    6.21
O=C(Nc1ccc(Cl)cc1)N1CCC(CO)CC1    5.65

Exercise: Short answer please: pIC50, Soluble epoxide hydrolase (Homo sapiens), entry COc1cc(-c2nc3ccc(C)cn3c2NC2CCCCC2)ccc1OCCCNC(=O)Nc1ccc(OC(F)(F)F)cc1
Key: 6.94
